pKd overview
Target: T1, DD(E) fragment of fibrin
T1 chain 1: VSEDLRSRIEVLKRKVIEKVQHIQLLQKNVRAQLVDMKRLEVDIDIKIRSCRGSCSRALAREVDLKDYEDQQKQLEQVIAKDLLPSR
T1 chain 2: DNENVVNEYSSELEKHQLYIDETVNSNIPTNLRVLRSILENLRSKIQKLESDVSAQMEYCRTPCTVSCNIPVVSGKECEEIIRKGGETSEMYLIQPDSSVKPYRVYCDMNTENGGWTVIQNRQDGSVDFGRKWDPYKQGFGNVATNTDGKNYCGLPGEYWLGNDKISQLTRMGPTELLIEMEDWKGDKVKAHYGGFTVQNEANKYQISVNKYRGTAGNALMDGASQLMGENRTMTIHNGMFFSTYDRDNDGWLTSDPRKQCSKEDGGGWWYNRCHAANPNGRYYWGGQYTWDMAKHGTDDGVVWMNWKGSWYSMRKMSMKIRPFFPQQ
T1 chain 3: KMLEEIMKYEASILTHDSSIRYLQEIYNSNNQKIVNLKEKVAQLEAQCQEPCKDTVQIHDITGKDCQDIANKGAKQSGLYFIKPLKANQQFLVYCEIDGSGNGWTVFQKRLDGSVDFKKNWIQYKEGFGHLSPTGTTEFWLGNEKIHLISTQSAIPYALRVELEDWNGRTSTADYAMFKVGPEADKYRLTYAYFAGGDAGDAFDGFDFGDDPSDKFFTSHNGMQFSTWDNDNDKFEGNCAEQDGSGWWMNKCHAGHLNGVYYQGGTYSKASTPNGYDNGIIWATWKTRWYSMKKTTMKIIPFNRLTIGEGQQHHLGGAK
T1 chain 4: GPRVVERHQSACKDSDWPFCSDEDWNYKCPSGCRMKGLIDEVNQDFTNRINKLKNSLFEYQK
T1 chain 5: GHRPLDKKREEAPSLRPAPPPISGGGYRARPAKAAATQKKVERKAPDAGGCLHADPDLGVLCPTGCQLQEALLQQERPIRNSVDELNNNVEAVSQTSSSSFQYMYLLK
T1 chain 6: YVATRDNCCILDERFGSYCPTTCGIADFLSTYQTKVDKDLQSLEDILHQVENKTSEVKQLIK
Assay: affinity to DD(E) fragment of fibrin
pKd: −log10 of the molar value. Positions of bridges follow the written chain, without caps; N, C: chain ends. Non-standard residues stand in square brackets, D forms with d. No end group written: not given here. Tyr(3-Cl) = N[C@@H](Cc1ccc(O)c(Cl)c1)C(=O)O; Hyp = O=C(O)[C@@H]1C[C@@H](O)CN1

{"columns": ["binder", "pKd"],
 "data": [
  ["S[dE]C[Hyp][Tyr(3-Cl)]GLCWIQ (disulfide 3-8 (inferred)) [S-(D-E)-C-Hyp-Y(3-Cl)-G-L-C-W-I-Q]", "≥ 6.70"],
  ["WEC[Hyp][Tyr(3-Cl)]GLCHIQ (disulfide 3-8 (inferred)) [W-E-C-Hyp-Y(3-Cl)-G-L-C-H-I-Q]", "≥ 6.70"]
]}

Prompt: Reported pKd, binder H[dE]C[Hyp][Tyr(3-Cl)]GLCWIQ (disulfide 3-8 (inferred)) [H-(D-E)-C-Hyp-Y(3-Cl)-G-L-C-W-I-Q] : ____
Response: ≥ 6.70
